Biological target: Full-length human MNK1 (Homo sapiens, UniProt Q9BUB5, T385D)
Construct: GST (N); purchased Carna Biosciences 02-145; host or cells: baculovirus expression system
Sequence (Q9BUB5 1-424 isoform Q9BUB5-2 T344D): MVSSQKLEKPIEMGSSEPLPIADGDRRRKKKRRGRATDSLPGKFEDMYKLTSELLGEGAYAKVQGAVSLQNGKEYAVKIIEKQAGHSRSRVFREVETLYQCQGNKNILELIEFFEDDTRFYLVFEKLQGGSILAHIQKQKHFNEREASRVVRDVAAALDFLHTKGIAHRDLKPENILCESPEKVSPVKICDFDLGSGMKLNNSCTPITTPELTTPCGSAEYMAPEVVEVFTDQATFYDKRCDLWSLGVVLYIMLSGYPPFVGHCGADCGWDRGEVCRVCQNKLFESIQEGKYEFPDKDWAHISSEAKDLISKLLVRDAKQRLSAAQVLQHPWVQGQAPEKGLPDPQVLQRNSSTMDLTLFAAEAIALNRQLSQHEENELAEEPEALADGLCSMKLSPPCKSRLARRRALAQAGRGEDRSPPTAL
Experiment: MNK1 biochemical IC50 assay (Caliper Mobility Shift Assay)
Settings: read-out: P(IC50) MNK1 (converted)
MEASURE: IC50 (nM)

- COMPOUND: "CN(C)CCCNC(=O)c1nc2c(Nc3ccc(F)cc3O[C@H]3CCCOC3)ncnc2s1"
  IC50 [nM]: 126

(A) CO[C@@H]1CCC[C@H](Oc2cc(F)ccc2Nc2ncnc3sc(C(=O)NCC4CCNCC4)nc23)C1
(B) CN(C)CCCNC(=O)c1nc2c(N3CCc4cccc(F)c43)ncnc2s1
(C) O=C(NCC1CCNCC1)c1nc2c(N3CC(CO)c4ccccc43)ncnc2s1 (stereo not shown)
Sort by IC50, descending. I'd appreciate it if you listed the labels in the requested order.
B, A, C
(B: 158 nM, A: 100 nM, C: 10 nM)
